# Test system: Aggregatibacter actinomycetemcomitans
# assay: Metabolic activity, Biolog phenotype microarray
# Format: cell-based
# runConditions: A actinomycetemcomitans; 24 hrs
Entries and their metabolic activity, OD at 492 nm divided by OD of control (control = 1) values follow.
readoutKind: metabolic activity, OD at 492 nm divided by OD of control (control = 1)

compound=O=C(O)CC(O)(CC(=O)O)C(=O)O subjectoftest="Aggregatibacter actinomycetemcomitans" experimentalresult=1.3098
compound=C[C@H](O)C(=O)O subjectoftest="Aggregatibacter actinomycetemcomitans" experimentalresult=1.7850
compound="COC(=O)CCC(=O)O [Mono methyl succinate, mono methyl succinate]" subjectoftest="Aggregatibacter actinomycetemcomitans" experimentalresult=0.9321
compound=N[C@@H](CC(=O)O)C(=O)O subjectoftest="Aggregatibacter actinomycetemcomitans" experimentalresult=1.4358
compound=O=C(O)C[C@H](O)C(=O)O subjectoftest="Aggregatibacter actinomycetemcomitans" experimentalresult=1.6257
compound=O=C(O)CCC(=O)O subjectoftest="Aggregatibacter actinomycetemcomitans" experimentalresult=1.1066
compound=O=C(O)[C@H](O)[C@@H](O)[C@H](O)[C@H](O)CO[C@H]1O[C@H](CO)[C@H](O)[C@H](O)[C@H]1O subjectoftest="Aggregatibacter actinomycetemcomitans" experimentalresult=0.9361
